Tested on: tet operator sequence
ASSAY: β-galactosidase activity of a tetracycline-regulated promoter in transformed E. coli with revTetR, in the presence and absence of anhydrotetracycline (atc)
Assay type: cell-based, Escherichia coli
RECORDED_CONDITIONS: RevTetR isolate cultured in the absence of anhydrotetracycline (ATC)
Binarize β-Galactosidase Activity, Cultured Without ATC at 100; below is Fulfilled, at or above is Not fulfilled.

MOLECULE | GROUP
TetRrevAD2/13: revTetR(BD) E19D V20E E23K V57L I59N L60F A61A (protein, Modified tetracycline repressor, revTetR(BD) E19D V20E E23K V57L I59N L60F A61A) MSRLDKSKVINSALELLNDEGIKGLTTRKLAQKLGVEQPTLYWHVKNKRALLDALALENFARHHDYSLPAAGESWQSFLRNNAMSFRRALLRYRDGAKVHLGTRPDEKQYDTVETQLRFMTENGFSLRDGLYAISAVSHFTLGAVLEQQEHTAALTDRPAAPDENLPPLLREALQIMDSDDGEQAFLHGLESLIRGFEVQLTALLQIV | Fulfilled
TetRrev29/9: revTetR(BD) L17V N18Y G21G I22T (protein, Modified tetracycline repressor, revTetR(BD) L17V N18Y G21G I22T) MSRLDKSKVINSALELVYEVGTEGLTTRKLAQKLGVEQPTLYWHVKNKRALLDALAVEILARHHDYSLPAAGESWQSFLRNNAMSFRRALLRYRDGAKVHLGTRPDEKQYDTVETQLRFMTENGFSLRDGLYAISAVSHFTLGAVLEQQEHTAALTDRPAAPDENLPPLLREALQIMDSDDGEQAFLHGLESLIRGFEVQLTALLQIV | Fulfilled
TetRrev96/99-13: revTetR(BD) G96T V99D (protein, Modified tetracycline repressor, revTetR(BD) G96T V99D) MSRLDKSKVINSALELLNEVGIEGLTTRKLAQKLGVEQPTLYWHVKNKRALLDALAVEILARHHDYSLPAAGESWQSFLRNNAMSFRRALLRYRDTAKDHLGTRPDEKQYDTVETQLRFMTENGFSLRDGLYAISAVSHFTLGAVLEQQEHTAALTDRPAAPDENLPPLLREALQIMDSDDGEQAFLHGLESLIRGFEVQLTALLQIV | Not fulfilled
TetRrev4/6-17: revTetR(BD) G99R V99L L101I (protein, Modified tetracycline repressor, revTetR(BD) G99R V99L L101I) MSRLDKSKVINSALELLNEVGIEGLTTRKLAQKLGVEQPTLYWHVKNKRALLDALAVEILARHHDYSLPAAGESWQSFLRNNAMSFRRALLRYRDRAKLHIGTRPDEKQYDTVETQLRFMTENGFSLRDGLYAISAVSHFTLGAVLEQQEHTAALTDRPAAPDENLPPLLREALQIMDSDDGEQAFLHGLESLIRGFEVQLTALLQIV | Fulfilled
TetRrev96/99-14: revTetR(BD) G96N V99N (protein, Modified tetracycline repressor, revTetR(BD) G96N V99N) MSRLDKSKVINSALELLNEVGIEGLTTRKLAQKLGVEQPTLYWHVKNKRALLDALAVEILARHHDYSLPAAGESWQSFLRNNAMSFRRALLRYRDNAKNHLGTRPDEKQYDTVETQLRFMTENGFSLRDGLYAISAVSHFTLGAVLEQQEHTAALTDRPAAPDENLPPLLREALQIMDSDDGEQAFLHGLESLIRGFEVQLTALLQIV | Not fulfilled

Query string: # strict comparison: is reported β-Galactosidase Activity, Cultured Without ATC < 100? input = TetRrevAD2/8: revTetR(BD) V20G D53N A54A A56G V57L I59F L60L R62R (protein, Modified tetracycline repressor, revTetR(BD) V20G D53N A54A A56G V57L I59F L60L R62R) MSRLDKSKVINSALELLNEGGIEGLTTRKLAQKLGVEQPTLYWHVKNKRALLNALGLEFFARHHDYSLPAAGESWQSFLRNNAMSFRRALLRYRDGAKVHLGTRPDEKQYDTVETQLRFMTENGFSLRDGLYAISAVSHFTLGAVLEQQEHTAALTDRPAAPDENLPPLLREALQIMDSDDGEQAFLHGLESLIRGFEVQLTALLQIV
Result string: Fulfilled

Query string: # strict comparison: is reported β-Galactosidase Activity, Cultured Without ATC < 100? input = TetRrevAD1/2: revTetR(BD) N18Y L52L D53Y A54A I59T (protein, Modified tetracycline repressor, revTetR(BD) N18Y L52L D53Y A54A I59T) MSRLDKSKVINSALELLYEVGIEGLTTRKLAQKLGVEQPTLYWHVKNKRALLYALAVETLARHHDYSLPAAGESWQSFLRNNAMSFRRALLRYRDGAKVHLGTRPDEKQYDTVETQLRFMTENGFSLRDGLYAISAVSHFTLGAVLEQQEHTAALTDRPAAPDENLPPLLREALQIMDSDDGEQAFLHGLESLIRGFEVQLTALLQIV
Result string: Fulfilled
